Test system: CEM cells HIV-1 protection, formazan growth assay
Experiment: NCI AIDS Antiviral Assay
pEC50: −log10 of the molar value.

MOLECULE	pEC50
Cc1cc2c(cc1C)[n+](=O)c(C(=O)C/C(=N/NC(=O)CC#N)C(=O)Nc1ccccc1C(F)(F)F)c(C)n2[O-]	< 4.88
CCOC(=O)C1(N=O)CCCCC1=O (stereo not given)	< 3.70
CCOC(=O)COC(=O)c1cc(C(=CCC[C@H]2CC[C@@]3(C)[C@@H](CC[C@@H]4[C@@H]3CC[C@]3(C)[C@@H](C(C)CCCC(C)C)CC[C@@H]43)C2)c2cc(Cl)c(OCC(=O)OCC)c(C(=O)OCC(=O)OCC)c2)cc(Cl)c1OCC(=O)OCC (stereo not given in full)	< 3.70
CCOC(=O)/C=C/CCO[Si](C)(C)C(C)(C)C	< 3.70
COc1cc2c(c(OC)c1OC)C(=O)[C@H](O)[C@H]2NC(N)=O	< 3.70
O=S(=O)(O)OC1CCCC1S(=O)(=O)O (stereo not given)	< 3.70
Cc1cccc(N(C(=O)Nc2ccc(Cl)c(Cl)c2)C2=NCC(C)S2)c1 (stereo not given)	< 3.70
c1ccc2c(c1)cc1c3[nH]c4ccccc4c3ccn21	< 3.70
NC1C(O)C(O)C(O)C(O)C1O (stereo not given)	< 2.14
C=CCNC(=S)NNC(=O)c1c(C)nc2sccn12	< 3.07

* * *

Known EC50 of a selection of compounds
System: CEM cells HIV-1 protection, formazan growth assay
Experiment: NCI AIDS Antiviral Assay
QUANTITY_MEASURED: EC50

COMPOUND	QUANTITY_MEASURED	RECORDED_RESULT
CC(C)(C)N1NC1C1NN1C(C)(C)C (stereo unspecified)	EC50	> 200 µM
Nc1c(CCc2ccccn2)ccc2ccccc12	EC50	> 200 µM
O=C(N=c1ccc2nc(=O)[nH]n(O)c-2c1)C(F)(F)F	EC50	> 200 µM
COC(=O)C1(OC(=O)Sc2ccccc2)CCN(C)CC1	EC50	> 200 µM
CCOC(=O)C(NC(=O)c1ccccc1)(c1ccc(S(=O)(=O)Nc2onc(C)c2C)cc1)C(F)(F)F (stereo unspecified)	EC50	> 200 µM
O=c1ccc(=O)n(-c2ccc(Br)cc2)[nH]1	EC50	> 26.9 µM
CC(C)(C)c1cc2ccc(C(N)=O)cc2c(=O)[nH]1	EC50	> 537 µM
O=C(N=C1[Se]C(=Nc2ccccc2)C(=Nc2ccccc2)N1c1ccccc1)c1ccc([N+](=O)[O-])cc1	EC50	> 200 µM
COC(=O)c1cc(OS(=O)(=O)C(F)(F)F)c(=O)n2c1CCCC2	EC50	> 200 µM
COc1cc(NC=O)c2c(c1)SC(c1ccccc1)C(=O)N2 (stereo unspecified)	EC50	> 200 µM
O=C1[C@@H]2[C@H](C(=O)N1c1ccccc1)[C@H]1CC[C@H]2N1C(=O)c1ccccc1	EC50	> 55 µM
O=C(Nc1cccc(NC(=O)c2cc(=O)c3ccccc3o2)n1)c1cc(=O)c2ccccc2o1	EC50	> 151 µM
CCOP(C)(=O)C(Cc1c[nH]c2ccccc12)C(=O)O (stereo unspecified)	EC50	> 200 µM
CC(=O)OCCn1c(Cc2ccc(Cl)cc2)nn(C(C)=O)c1=O	EC50	> 200 µM
CN(C)c1ccc(/C=C/C(=O)O)cc1	EC50	> 1150 µM
COc1ccc([C@]23CCC4(OCC(C)(C)CO4)[C@H]4CON(O[C@H](O[C@@H]5CCCCC5C(C)(C)c5ccccc5)C2)[C@@H]43)cc1OC (stereo partly specified)	EC50	> 50.1 µM
NC(=O)CNC(=O)[C@@H]1C[C@@H](OCCC(=O)O)CN1C(=O)OCc1ccccc1	EC50	> 200 µM
COC(=O)[C@@H]1CN(C(=O)CCc2ccccc2)C(=O)N1C(=O)OCc1ccccc1	EC50	> 200 µM
Cc1ccc(/C(O)=C/c2nc3ccccc3nc2NC23CC4CC(CC(C4)C2)C3)cc1	EC50	> 200 µM
CN1c2ccccc2C(=O)NC12CCN(CC1COc3ccccc3O1)CC2 (stereo unspecified)	EC50	> 200 µM
CCC(C)C(=O)c1c(O)c(CC=C(C)C)c2c3c(cc(=O)oc13)C(CC)O2 (stereo unspecified)	EC50	> 200 µM
